The origin of these recorded values is patent US11608323B2.

- System: ALOMY
- test.protocol: Post-emergence herbicidal activity, glasshouse pot test; further: key: 5=total damage to plant; 0=no damage to plant
- Assay type: in vivo
- test.context: Alopecurus myosuroides; application post-emergence; rate 1000 g/Ha; evaluated after 13 days
assay.readout: Post-emergence herbicidal activity ALOMY (damage score 0-5)

> print(dat)
                                    molecule  readout.value
 1  CC(C)OC1C(O)N(c2cc(C(F)(F)F)ccn2)C(=O)N1C (centres unmarked)              4
 2  CC1C(O)N(c2cc(C(C)(C)C)ccn2)C(=O)N1C (single isomer, unassigned)              5
 3  CN1C(=O)N(c2cc(C(F)(F)F)ccn2)C(O)C1C(F)(F)F (centres unmarked)              4
 4  CCOC1C(OC(=O)[C@@H](C)c2ccc(CC(C)C)cc2)N(c2cc(C(F)(F)F)ccn2)C(=O)N1C (some centres unmarked)              0
 5  COC(OC)C1C(O)N(c2cc(C(F)(F)F)ccn2)C(=O)N1C (centres unmarked)              2
 6  CN1C(=O)N(c2cc(C(F)(F)F)ccn2)C(O)C1O (centres unmarked)              4
 7  C[C@H]1C(O)N(c2cc(C(F)(F)F)ccn2)C(=O)N1C (mixture of isomers)              5
 8  COc1ccc(-c2cnc(N3C(=O)N(C)C(C)C3O)cc2C(F)(F)F)cn1 (centres unmarked)              5
 9  C=CCOC1C(O)N(c2cc(C(F)(F)F)ccn2)C(=O)N1C (centres unmarked)              4
10  CCOC1C(OC(=O)[C@@H](OC(C)=O)c2ccccc2)N(c2cc(C(F)(F)F)ccn2)C(=O)N1C (some centres unmarked)              5
11  O=C1N(c2cc(C(F)(F)F)ccn2)C(O)[C@@H]2CCCN12 (some centres unmarked)              5
12  CN1C(=O)N(c2cc(C(F)(F)F)c(I)cn2)C(O)C1O (centres unmarked)              5
13  CC(=O)Nc1cnc(N2C(=O)N(C)C(C)C2O)cc1C(F)(F)F (single isomer, unassigned)              4
14  Cc1cnc(N2C(=O)N(C)C(C)C2O)cc1C(F)(F)F (single isomer, unassigned)              5
15  CCOC1C(OC(C)=O)N(c2cc(C(F)(F)F)ccn2)C(=O)N1C (centres unmarked)              5
16  COC1C(O)N(c2cc(C(F)(F)F)c(-c3cncnc3)cn2)C(=O)N1C (centres unmarked)              4
17  CCOC1C(O)N(c2cc(C(F)(F)F)c(Cl)cn2)C(=O)N1C (centres unmarked)              5
